Molecular target: flavin binding site of complex I (IF) (Rattus norvegicus, UniProt Q5XIH3)
Construct: freshly isolated muscle mitochondria were assayed; from tissue; host or cells: rat skeletal muscle mitochondria (Wistar, Harlan Laboratories)
Sequence (Q5XIH3 21-464 limits assumed, one chain of several): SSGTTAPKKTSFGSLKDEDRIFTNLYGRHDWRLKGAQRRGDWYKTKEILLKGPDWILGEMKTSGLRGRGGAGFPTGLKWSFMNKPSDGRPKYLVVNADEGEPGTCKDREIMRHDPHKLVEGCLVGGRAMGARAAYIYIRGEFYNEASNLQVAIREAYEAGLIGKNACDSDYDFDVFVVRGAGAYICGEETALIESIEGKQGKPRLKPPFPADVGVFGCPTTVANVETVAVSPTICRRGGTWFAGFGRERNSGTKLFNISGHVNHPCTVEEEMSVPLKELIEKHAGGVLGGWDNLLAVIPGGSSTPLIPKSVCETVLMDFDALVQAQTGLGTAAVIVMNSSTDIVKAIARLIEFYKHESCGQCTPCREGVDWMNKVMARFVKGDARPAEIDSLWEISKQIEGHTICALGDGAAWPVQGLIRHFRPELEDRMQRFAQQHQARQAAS
Test: High-throughput screen: ROS production from flavin binding site of complex I (IF)
Assay type: biochemical
Details: Table 9; percent change in ROS from DMSO controls
Measured IF by item
Give the value as a plain number.

Kindly note the recorded IF for CCCN(CCO)Cc1ccc2c(c1)c1ccccc1n2CC , which is −27.6

Kindly note the recorded IF for Cc1ccc(CCSc2ccc(F)cc2)cn1 , which is −0.7

Kindly note the recorded IF for CN(C)CCN(Cc1ccccc1)Cc1ccc(C(F)(F)F)cc1 , which is −18.1

Kindly note the recorded IF for COc1ccc(Cl)cc1N(Cc1ccccc1)Cc1ccccc1 , which is 5.6

Kindly note the recorded IF for CN(C)CCN(Cc1ccccc1)Cc1ccccc1Br , which is −21.1

Others:
Kindly note the recorded IF for Cc1ccc(C(C)C)c(OCC(O)CN2CCN(Cc3ccccc3)CC2)c1.Cl.Cl (stereo not drawn) , which is −23.0

Kindly note the recorded IF for COc1ccc(C2C(C#N)=C(N)Oc3c2c(=O)oc2ccccc32)cc1O (stereo not drawn) , which is 0.4

Kindly note the recorded IF for Cc1ccccc1NS(=O)(=O)c1ccc(-c2ccc(S(=O)(=O)Nc3ccccc3C)cc2)cc1 , which is −1.7

Kindly note the recorded IF for O=C(Nc1ccc(Br)cc1)[C@@H]1C2C=CC(C2)[C@@H]1C(=O)O (stereo partly drawn) , which is −19.1

The origin of these recorded values is patent US20140128352A1.
